B1: 1ZHC (parent)
chain: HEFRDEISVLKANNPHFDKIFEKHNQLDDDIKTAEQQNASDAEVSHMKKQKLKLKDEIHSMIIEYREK

- Variants of: B1
- experiment summary: folding stability dG (cDNA display proteolysis); higher = more stable
- measurement conditions: PBS, room temperature
Tag: Y if measured folding stability dG is not below 0.8 kcal/mol, N if it is.

- mutation code: "D5K"
  assigned category: "Y"
- mutation code: "E67D"
  assigned category: "N"
- mutation code: "K49S"
  assigned category: "Y"
- mutation code: "R4W"
  assigned category: "Y"
- mutation code: "H59E"
  assigned category: "Y"
- mutation code: "M47L"
  assigned category: "Y"
- mutation code: "H1G"
  assigned category: "Y"
- mutation code: "E35I"
  assigned category: "Y"
- mutation code: "V44C"
  assigned category: "N"
- mutation code: "A12Y"
  assigned category: "N"
- mutation code: "E57A"
  assigned category: "N"
- mutation code: "N38R"
  assigned category: "N"
- mutation code: "A42H"
  assigned category: "N"
- mutation code: "K51H"
  assigned category: "N"
- mutation code: "K53Q"
  assigned category: "N"
- mutation code: "Q50K"
  assigned category: "N"
- mutation code: "E35M"
  assigned category: "Y"
- mutation code: "K51S"
  assigned category: "N"
- mutation code: "E6F"
  assigned category: "Y"
- mutation code: "K32S"
  assigned category: "N"
- mutation code: "K49H"
  assigned category: "N"
- mutation code: "D28T"
  assigned category: "Y"
- mutation code: "E57V"
  assigned category: "N"
- mutation code: "H59K"
  assigned category: "N"
- mutation code: "I7T"
  assigned category: "N"
- mutation code: "N14A"
  assigned category: "N"
- mutation code: "A34K"
  assigned category: "N"
- mutation code: "D28V"
  assigned category: "Y"
- mutation code: "K51A"
  assigned category: "Y"
- mutation code: "Q26Y"
  assigned category: "N"
- mutation code: "S8I"
  assigned category: "Y"
- mutation code: "N38D"
  assigned category: "N"
- mutation code: "I7R"
  assigned category: "N"
- mutation code: "D29F"
  assigned category: "Y"
- mutation code: "S60K"
  assigned category: "Y"
- mutation code: "H24W"
  assigned category: "Y"
- mutation code: "H24M"
  assigned category: "Y"
- mutation code: "H16C"
  assigned category: "Y"
- mutation code: "A39W"
  assigned category: "Y"
- mutation code: "N13T"
  assigned category: "Y"
- mutation code: "R4G"
  assigned category: "Y"
- mutation code: "E64A"
  assigned category: "Y"
- mutation code: "A12R"
  assigned category: "Y"
- mutation code: "D5T"
  assigned category: "N"
- mutation code: "K55R"
  assigned category: "Y"
